- System: SK-MEL-5 melanoma
- assayRemarks: NCI tumour cell line growth inhibition, 48 h
Kindly state TGI for each of the entries shown.
Answers are plain numbers, in µM.

- CC1(C)CN(c2cc(C(F)(F)F)cc3cncn23)CCC12NC(=O)NC2=O (stereo not given): 35.4
- [N-]=[N+]=Nc1c(Cc2ccccc2)c(=O)oc2ccccc12: 20.2
- Cc1cnc(-n2c(C)nc3cc(Cl)ccc3c2=O)s1: 34

// next entry
Query string: Need TGI, item `CCCN=Cc1c(O)c(O)c(C(C)C)c2cc(C)c(-c3c(C)cc4c(C(C)C)c(O)c(O)c(C=NCCC)c4c3O)c(O)c12`
Result string: 49.1
